# EXPERIMENTAL SYSTEM: mouse Tas2r144 (Mus musculus)
# Construct: expressed in transfected cells; host or cells: HEK293T-Gα16gust44
# Sequence (Q7TQB8 whole entry): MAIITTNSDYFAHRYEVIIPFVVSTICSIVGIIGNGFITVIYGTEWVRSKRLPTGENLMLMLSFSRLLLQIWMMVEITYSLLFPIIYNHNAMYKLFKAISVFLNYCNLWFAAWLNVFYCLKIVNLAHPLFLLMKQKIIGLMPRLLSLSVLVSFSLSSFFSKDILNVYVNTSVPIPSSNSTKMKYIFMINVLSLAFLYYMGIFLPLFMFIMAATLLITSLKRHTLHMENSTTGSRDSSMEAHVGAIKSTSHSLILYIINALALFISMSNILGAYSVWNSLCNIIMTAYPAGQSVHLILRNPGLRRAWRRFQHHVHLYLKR
# PROTOCOL: Calcium imaging assay (FLIPR), HEK293T-Gα16gust44 cells transfected with mouse Tas2r144
# Format: cell-based
# CONDITION CONTEXT: Time 62.781 s
METRIC NAME: RLU (RLU)
Lab book: enter the figure in RLU, no units written.

Incoming: Need RLU of C[C@H](CCC(=O)NCCS(=O)(=O)O)[C@H]1CC[C@H]2[C@@H]3CC[C@@H]4C[C@H](O)CC[C@]4(C)[C@H]3CC[C@]12C [Taurolithocholic Acid, taurolithocholic acid] , thanks.
Outgoing: 416.863

Incoming: What about C[C@H](CCC(=O)NCCS(=O)(=O)O)[C@H]1CC[C@H]2[C@@H]3[C@H](O)C[C@@H]4C[C@H](O)CC[C@]4(C)[C@H]3C[C@H](O)[C@]12C [Taurocholic Acid, taurocholic acid] ?
Outgoing: 553.576

Incoming: What about C[C@H](CCC(=O)NCC(=O)O)[C@H]1CC[C@H]2[C@@H]3[C@H](O)C[C@@H]4C[C@H](O)CC[C@]4(C)[C@H]3C[C@H](O)[C@]12C [Glycocholic Acid, glycocholic acid] ?
Outgoing: 417.317

Incoming: What about C[C@H](CCC(=O)O)[C@H]1CC[C@H]2[C@@H]3[C@H](O)C[C@@H]4C[C@H](O)CC[C@]4(C)[C@H]3C[C@H](O)[C@]12C [Cholic Acid, cholic acid] ?
Outgoing: 667.745

----------
I'd appreciate it if you could supply RLU values for the items below.
# EXPERIMENTAL SYSTEM: mouse Tas2r105 (Mus musculus, UniProt Q9JKT4)
# Construct: expressed in transfected cells; host or cells: HEK293T-Gα16gust44
# PROTOCOL: Calcium imaging assay (FLIPR), HEK293T-Gα16gust44 cells transfected with mouse Tas2r105
# Format: cell-based
# CONDITION CONTEXT: Time 66.781 s
Lab book: enter the figure in RLU, no units written.

Incoming: Provide value of RLU for this record tested with mouse Tas2r105 (Mus musculus, UniProt Q9JKT4): C[C@H](CCC(=O)NCC(=O)O)[C@H]1CC[C@H]2[C@@H]3[C@H](O)C[C@@H]4C[C@H](O)CC[C@]4(C)[C@H]3C[C@H](O)[C@]12C [Glycocholic Acid, glycocholic acid]
Outgoing: 424.095

Incoming: What about C[C@H](CCC(=O)O)[C@H]1CC[C@H]2[C@@H]3CC[C@@H]4C[C@H](O)CC[C@]4(C)[C@H]3CC[C@]12C [Lithocholic Acid, lithocholic acid] ?
Outgoing: 137.104

Incoming: What about C[C@H](CCC(=O)O)[C@H]1CC[C@H]2[C@@H]3[C@H](O)C[C@@H]4C[C@H](O)CC[C@]4(C)[C@H]3C[C@H](O)[C@]12C [Cholic Acid, cholic acid] ?
Outgoing: 375.793

Incoming: What about C[C@H](CCC(=O)O)[C@H]1CC[C@H]2[C@@H]3CC[C@@H]4C[C@H](O)CC[C@]4(C)[C@H]3C[C@H](O)[C@]12C [Deoxycholic Acid, deoxycholic acid] ?
Outgoing: 35.0054

----------
# EXPERIMENTAL SYSTEM: mouse Tas2r105 (Mus musculus, UniProt Q9JKT4)
# Construct: expressed in transfected cells; host or cells: HEK293T-Gα16gust44
# Sequence (Q9JKT4 1-300): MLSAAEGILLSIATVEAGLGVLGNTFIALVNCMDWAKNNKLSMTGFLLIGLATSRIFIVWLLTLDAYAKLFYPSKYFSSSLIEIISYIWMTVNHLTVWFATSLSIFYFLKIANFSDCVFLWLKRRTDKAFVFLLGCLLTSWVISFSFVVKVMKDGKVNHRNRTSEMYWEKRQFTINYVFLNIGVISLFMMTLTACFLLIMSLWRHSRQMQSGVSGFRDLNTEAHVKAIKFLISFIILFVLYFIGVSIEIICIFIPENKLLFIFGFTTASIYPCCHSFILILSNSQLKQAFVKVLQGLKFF
# PROTOCOL: Calcium imaging assay (FLIPR), HEK293T-Gα16gust44 cells transfected with mouse Tas2r105
# Type: cell-based
# CONDITION CONTEXT: Time 102.781 s
I'd appreciate it if you could supply RLU values for the items below.
Lab book: enter the figure in RLU, no units written.

Incoming: Need RLU of C[C@H](CCC(=O)O)[C@H]1CC[C@H]2[C@@H]3[C@H](O)C[C@@H]4C[C@H](O)CC[C@]4(C)[C@H]3C[C@H](O)[C@]12C , thanks.
Outgoing: 586.681

Incoming: What about C[C@H](CCC(=O)O)[C@H]1CC[C@H]2[C@@H]3CC[C@@H]4C[C@H](O)CC[C@]4(C)[C@H]3CC[C@]12C ?
Outgoing: 222.595

Incoming: What about C[C@H](CCC(=O)NCC(=O)O)[C@H]1CC[C@H]2[C@@H]3[C@H](O)C[C@@H]4C[C@H](O)CC[C@]4(C)[C@H]3C[C@H](O)[C@]12C ?
Outgoing: 470.239

Incoming: What about C[C@H](CCC(=O)O)[C@H]1CC[C@H]2[C@@H]3CC[C@@H]4C[C@H](O)CC[C@]4(C)[C@H]3C[C@H](O)[C@]12C ?
Outgoing: 130.646

----------
# EXPERIMENTAL SYSTEM: mouse Tas2r108 (Mus musculus, UniProt Q9JKT3)
# Construct: expressed in transfected cells; host or cells: HEK293T-Gα16gust44
# Sequence (Q9JKT3 whole entry): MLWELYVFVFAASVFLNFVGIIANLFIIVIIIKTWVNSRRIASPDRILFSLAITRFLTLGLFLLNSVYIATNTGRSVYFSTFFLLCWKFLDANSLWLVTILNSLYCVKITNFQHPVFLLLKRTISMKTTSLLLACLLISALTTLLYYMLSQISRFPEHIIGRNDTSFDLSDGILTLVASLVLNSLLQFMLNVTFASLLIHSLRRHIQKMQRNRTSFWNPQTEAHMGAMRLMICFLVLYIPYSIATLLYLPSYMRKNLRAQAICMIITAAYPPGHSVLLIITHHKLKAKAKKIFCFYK
# PROTOCOL: Calcium imaging assay (FLIPR), HEK293T-Gα16gust44 cells transfected with mouse Tas2r108
# Type: cell-based
# CONDITION CONTEXT: Time 18 s
METRIC NAME: RLU (RLU)
Lab book: enter the figure in RLU, no units written.

Incoming: Need RLU of C[C@H](CCC(=O)O)[C@H]1CC[C@H]2[C@@H]3[C@H](O)C[C@@H]4C[C@H](O)CC[C@]4(C)[C@H]3C[C@H](O)[C@]12C [Cholic Acid, cholic acid] , thanks.
Outgoing: -12.1137

Incoming: What about C[C@H](CCC(=O)NCC(=O)O)[C@H]1CC[C@H]2[C@@H]3[C@H](O)C[C@@H]4C[C@H](O)CC[C@]4(C)[C@H]3C[C@H](O)[C@]12C [Glycocholic Acid, glycocholic acid] ?
Outgoing: -18.1852

Incoming: What about C[C@H](CCC(=O)O)[C@H]1CC[C@H]2[C@@H]3CC[C@@H]4C[C@H](O)CC[C@]4(C)[C@H]3C[C@H](O)[C@]12C [Deoxycholic Acid, deoxycholic acid] ?
Outgoing: 0.8467

Incoming: What about C[C@H](CCC(=O)NCCS(=O)(=O)O)[C@H]1CC[C@H]2[C@@H]3CC[C@@H]4C[C@H](O)CC[C@]4(C)[C@H]3CC[C@]12C [Taurolithocholic Acid, taurolithocholic acid] ?
Outgoing: -10.699

Incoming: What about C[C@H](CCC(=O)NCCS(=O)(=O)O)[C@H]1CC[C@H]2[C@@H]3[C@H](O)C[C@@H]4C[C@H](O)CC[C@]4(C)[C@H]3C[C@H](O)[C@]12C [Taurocholic Acid, taurocholic acid] ?
Outgoing: -11.3649

----------
I'd appreciate it if you could supply RLU values for the items below.
# EXPERIMENTAL SYSTEM: human TAS2R1 (Homo sapiens)
# Construct: expressed in transfected cells; host or cells: HEK293T-Gα16gust44
# Sequence (Q9NYW7 whole entry): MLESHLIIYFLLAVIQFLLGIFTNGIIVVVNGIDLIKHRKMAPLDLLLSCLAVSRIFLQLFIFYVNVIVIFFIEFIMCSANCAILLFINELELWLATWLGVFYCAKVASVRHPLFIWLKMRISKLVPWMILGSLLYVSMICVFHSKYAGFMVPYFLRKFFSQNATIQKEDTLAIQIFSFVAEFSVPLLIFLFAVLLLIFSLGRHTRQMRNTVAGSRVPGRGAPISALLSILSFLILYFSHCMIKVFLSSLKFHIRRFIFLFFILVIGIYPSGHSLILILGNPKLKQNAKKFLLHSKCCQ
# PROTOCOL: Calcium imaging assay (FLIPR), HEK293T-Gα16gust44 cells transfected with human TAS2R1
# Format: cell-based
# CONDITION CONTEXT: Time 68.796 s
Lab book: enter the figure in RLU, no units written.

Incoming: Need RLU of C[C@H](CCC(=O)O)[C@H]1CC[C@H]2[C@@H]3CC[C@@H]4C[C@H](O)CC[C@]4(C)[C@H]3CC[C@]12C , thanks.
Outgoing: 839.926

Incoming: What about C[C@H](CCC(=O)O)[C@H]1CC[C@H]2[C@@H]3[C@@H](O)C[C@@H]4C[C@H](O)CC[C@]4(C)[C@H]3CC[C@]12C ?
Outgoing: 641.326

Incoming: What about C[C@H](CCC(=O)O)[C@H]1CC[C@H]2[C@@H]3[C@H](O)C[C@@H]4C[C@H](O)CC[C@]4(C)[C@H]3CC[C@]12C ?
Outgoing: 872.092

Incoming: What about C[C@H](CCC(=O)O)[C@H]1CC[C@H]2[C@@H]3[C@H](O)C[C@@H]4C[C@H](O)CC[C@]4(C)[C@H]3C[C@H](O)[C@]12C ?
Outgoing: 748.849

----------
# EXPERIMENTAL SYSTEM: human TAS2R14 (Homo sapiens)
# Construct: expressed in transfected cells; host or cells: HEK293T-Gα16gust44
# Sequence (Q9NYV8 whole entry): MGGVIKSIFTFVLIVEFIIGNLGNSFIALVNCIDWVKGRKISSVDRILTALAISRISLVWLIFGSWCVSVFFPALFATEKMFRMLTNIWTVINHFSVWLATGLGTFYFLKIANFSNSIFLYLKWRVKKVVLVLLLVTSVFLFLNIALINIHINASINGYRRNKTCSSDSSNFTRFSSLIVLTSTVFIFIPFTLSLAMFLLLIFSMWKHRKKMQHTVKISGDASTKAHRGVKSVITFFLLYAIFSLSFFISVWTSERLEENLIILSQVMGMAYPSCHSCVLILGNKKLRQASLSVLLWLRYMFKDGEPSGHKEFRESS
# PROTOCOL: Calcium imaging assay (FLIPR), HEK293T-Gα16gust44 cells transfected with human TAS2R14
# Format: cell-based
# CONDITION CONTEXT: TAS2R14; bile acids; mean
# Method: This set of bile acids was chosen because of their commercial availability in high purities, their diversity within the class of bile acids and their previous detection and quantitation in human blood. Stock solutions were prepared in DMSO. […] Measured data were negative control corrected by subtracting the signal of the mock-transfected cells and exported to Microsoft Excel using the FLIPR software ScreenWorks 4.2. […]
I'd appreciate it if you could supply Efficacy = maximal amplitude (ΔF/F) values for the items below.
I'd appreciate a reply containing only the number, no unit.

Incoming: Provide value of Efficacy = maximal amplitude (ΔF/F) for this record tested with human TAS2R14 (Homo sapiens): C[C@H](CCC(=O)NCCS(=O)(=O)O)[C@H]1CC[C@H]2[C@@H]3CC[C@@H]4C[C@H](O)CC[C@]4(C)[C@H]3CC[C@]12C
Outgoing: 0.07188

Incoming: What about C[C@H](CCC(=O)O)[C@H]1CC[C@H]2[C@@H]3[C@H](O)C[C@@H]4C[C@H](O)CC[C@]4(C)[C@H]3C[C@H](O)[C@]12C ?
Outgoing: 0.2451

Incoming: What about C[C@H](CCC(=O)NCC(=O)O)[C@H]1CC[C@H]2[C@@H]3[C@H](O)C[C@@H]4C[C@H](O)CC[C@]4(C)[C@H]3C[C@H](O)[C@]12C ?
Outgoing: 0.2451

Incoming: What about C[C@H](CCC(=O)NCCS(=O)(=O)O)[C@H]1CC[C@H]2[C@@H]3[C@H](O)C[C@@H]4C[C@H](O)CC[C@]4(C)[C@H]3C[C@H](O)[C@]12C ?
Outgoing: 0.2246

Incoming: What about C[C@H](CCC(=O)O)[C@H]1CC[C@H]2[C@@H]3[C@H](O)C[C@@H]4C[C@H](O)CC[C@]4(C)[C@H]3CC[C@]12C ?
Outgoing: 0.05441
